meta.source: BindingDB's records for doi:10.1021/jm9707028

# assay_system: Gag-Pol polyprotein [600-1027,V705A]/[600-1155,V705A] (Human immunodeficiency virus 1, UniProt P03366, V705A)
# Construct: 600-1027; 600-1155
# experiment_summary: HIV-1 RT Assay
What pIC50 was measured for each of the following?
In simple prose, pIC50 is minus the logarithm base ten of a concentration in moles per litre.

// query May I ask what pIC50 has been recorded for CCN1c2ncc(CCc3ccncc3)cc2C(=O)N(C)c2ccc(Cl)nc21 [2,8-Substituted Dipyridodiazepinone 37] ?
// result 6.26

// query Form field: reported pIC50 of CCN1c2ncc(CCc3ccccc3)cc2C(=O)N(C)c2ccc(Cl)nc21 [2,8-Substituted Dipyridodiazepinone 36]
// result 6.08

====

# assay_system: Gag-Pol polyprotein [600-1027,Y780C]/[600-1155,Y780C] (Human immunodeficiency virus 1, UniProt P03366, Y780C)
# Construct: 600-1027; 600-1155
# experiment_summary: HIV-1 RT Assay
observation_type: IC50

// query Requested read-out: IC50. Entry: "CCN1c2ncc(CCc3cncnc3)cc2C(=O)N(C)c2cccnc21"
// result > 1000 nM

// query Need IC50 of "CCN1c2ncc(CCc3ccncc3)cc2C(=O)N(C)c2cccnc21" , thanks.
// result 130 nM

// query I have this molecule here, "CCN1c2ncc(/C=C/c3ccncc3)cc2C(=O)N(C)c2cccnc21" , and I need its recorded IC50.
// result > 1000 nM

// query Form field: reported IC50 of "CCN1c2ncc(CCc3ccccn3)cc2C(=O)N(C)c2cccnc21"
// result > 1000 nM

// query # get_value(readout='IC50', item= "CCN1c2ncc(CCc3ccccc3C)cc2C(=O)N(C)c2ccc(Cl)nc21" )
// result > 1000 nM

// query For "CCN1c2ncc(CCc3ccccc3)cc2C(=O)N(C)c2ccc(-c3ccc[nH]3)nc21" , what is its reported IC50?
// result 520 nM

====

Provide the reported pIC50 of each item.
# assay_system: Gag-Pol polyprotein [600-1027,R876K]/[600-1155] (Human immunodeficiency virus 1, UniProt P03366, R876K)
# Construct: 600-1027; 600-1155
# experiment_summary: HIV-1 RT Assay
# measurement_context: pH 7.8; 22 °C
pIC50: −log10 of the molar value.

// query I'd like to know its pIC50. The compound in question is "CCN1c2ncc(/C=C/C(=O)OC)cc2C(=O)N(C)c2cccnc21"
// result < 6.00

// query Query: pIC50; subject: "CCN1c2ncc(N)cc2C(=O)N(C)c2cccnc21"
// result 7.00

// query Consider the compound shown here: "CCN1c2ncc(-c3cccc(OC)c3)cc2C(=O)N(C)c2cccnc21" What is its recorded pIC50?
// result < 6.00

// query Item "CCN1c2ncc(C(=O)O)cc2C(=O)N(C)c2cccnc21" has what recorded pIC50?
// result < 6.00

====

# assay_system: Gag-Pol polyprotein [600-1027,P835L]/[600-1155,P835L] (Human immunodeficiency virus 1, UniProt P03366, P835L)
# Construct: 600-1027; 600-1155
# experiment_summary: HIV-1 RT Assay
observation_type: IC50 (nM)
Unit nM implied. Number only.

// query Tell me the measured IC50 of CCN1c2ncc(CCc3ccccc3)cc2C(=O)N(C)c2ccc(Cl)nc21 [2,8-Substituted Dipyridodiazepinone 36] , please.
// result 710

// query For the compound shown here, CCN1c2ncc(CCc3ccncc3)cc2C(=O)N(C)c2ccc(Cl)nc21 [2,8-Substituted Dipyridodiazepinone 37] , give the reported IC50.
// result 110
